System: CHO-MG
assayText: Cytotoxicity against MGBG polyamine transporter deficient CHO-MG cells after 48 hrs by MTT assay
Format: ADME, cell-based
conditionSet: Cricetulus griseus
measurementType: IC50 (µM)
Give just the numeric value; µM need not be written.

>>> datavalue("Br.O=C1c2cccc3cccc(c23)C(=O)N1CCCNCCOCCOCCNCCCN1C(=O)c2cccc3cccc(c23)C1=O")
26.9
>>> datavalue("Br.O=C1c2cccc3cccc(c23)C(=O)N1CCCNCCCCCCCCNCCCN1C(=O)c2cccc3cccc(c23)C1=O")
5.1

# molecule O=C1c2cccc3cccc(c23)C(=O)N1CCCNC1CCCC(CC2CCCC(NCCCN3C(=O)c4cccc5cccc(c45)C3=O)C2)C1 (stereo not given) ; its IC50 = 6.3

Entry `Br.O=C1c2cccc3cccc(c23)C(=O)N1CCCNCCCCNCCCNCCCN1C(=O)c2cccc3cccc(c23)C1=O` , IC50 reported as 74.6

* * *

Test system: Nucleic Acid
assayText: Displacement of ethidium bromide from calf thymus DNA assessed as decrease of fluorescence of bound ethidium bromide by fluorometric assay
Assay type: nucleic-acid assay
conditionSet: Bos taurus
measurementType: C50 (µM)
Dear colleague, please return just the value in µM, with no unit written.

// worked examples, C50 included
>>> datavalue("O=C1c2cccc3cccc(c23)C(=O)N1CCCNCCCCCCCCCCNCCCN1C(=O)c2cccc3cccc(c23)C1=O")
1.8
>>> datavalue("Br.O=C1c2cccc3cccc(c23)C(=O)N1CCCNCCOCCOCCNCCCN1C(=O)c2cccc3cccc(c23)C1=O")
1.9

Consider `Br.O=C1c2cccc3cccc(c23)C(=O)N1CCCNCCCCCCCCNCCCN1C(=O)c2cccc3cccc(c23)C1=O` . Its measured C50 is 1.7

* * *

Catalogue of C50 values
Tested on: Nucleic Acid
assayText: Displacement of ethidium bromide from calf thymus DNA assessed as decrease of fluorescence of bound ethidium bromide by fluorometric assay
Assay type: nucleic-acid assay
conditionSet: Bos taurus
Give your result in µM as a bare value.

Example cases with answers are listed next.
>>> datavalue("O=C1c2cccc3cccc(c23)C(=O)N1CCCNCCCCNCCCN1C(=O)c2cccc3cccc(c23)C1=O")
1.5
>>> datavalue("O=C1c2cccc3cccc(c23)C(=O)N1CCCNCCCCCCNCCCN1C(=O)c2cccc3cccc(c23)C1=O")
1.5
>>> datavalue("O=C1c2cccc3cccc(c23)C(=O)N1CCCNC1CCCC(CC2CCCC(NCCCN3C(=O)c4cccc5cccc(c45)C3=O)C2)C1 (stereo unspecified)")
3.8
>>> datavalue("Br.O=C1c2cccc3cccc(c23)C(=O)N1CCCNCCCCNCCCNCCCN1C(=O)c2cccc3cccc(c23)C1=O")
1.4

Shift focus to the following entry.
Record `O=C1c2cccc3cccc(c23)C(=O)N1CCCNCCCCCCCCCCCCNCCCN1C(=O)c2cccc3cccc(c23)C1=O` , field C50: 3.4

* * *

System: MGBG polyamine transporter
assayText: Ratio of IC50 for MGBG polyamine transporter deficient CHO-MG cells to IC50 for CHO cells expressing MGBG polyamine transporter
Format: cell-based, Cricetulus griseus
conditionSet: chinese hamster; read-out: Ratio IC50
measurementType: selectivity ratio
I'd appreciate a reply containing only the number, no unit.

Data point: `Br.O=C1c2cccc3cccc(c23)C(=O)N1CCCNCCCCNCCCNCCCN1C(=O)c2cccc3cccc(c23)C1=O` ; selectivity ratio = 1

// recorded selectivity ratio for O=C1c2cccc3cccc(c23)C(=O)N1CCCNC1CCCC(CC2CCCC(NCCCN3C(=O)c4cccc5cccc(c45)C3=O)C2)C1 (stereo not given) : 1

The compound listed as `Br.O=C1c2cccc3cccc(c23)C(=O)N1CCCNCCOCCOCCNCCCN1C(=O)c2cccc3cccc(c23)C1=O` shows selectivity ratio equal to 0.4

Item: `Br.O=C1c2cccc3cccc(c23)C(=O)N1CCCNCCCCCCCCNCCCN1C(=O)c2cccc3cccc(c23)C1=O` | selectivity ratio: 0.9
